- Test system: NCI-H522 lung
- method_summary: NCI tumour cell line growth inhibition, 48 h
Overview of reported TGI across a group of compounds:
Numbers only here, please. The scale is µM.

[[record]]
compound = "Oc1[nH]c2c(Br)cccc2c1C1=Nc2ccccc2/C1=N/OCCN1CCCC1"
recorded_endpoint = "TGI"
units_of_measure = "µM"
recorded_result = 3.4

[[record]]
compound = "COc1cc(/C=C/C(=O)c2c(C)nc3ccccc3c2/C=C/c2ccc(C)cc2)cc(OC)c1OC"
recorded_endpoint = "TGI"
units_of_measure = "µM"
recorded_result = 5.56

[[record]]
compound = "CN(C)CCCN1c2ccccc2C(C)(C)c2ccccc21"
recorded_endpoint = "TGI"
units_of_measure = "µM"
recorded_result = 28.6

[[record]]
compound = "CC(=O)c1cccc(Nc2nc3ccc(Cl)cc3c3[nH]c4ccccc4c23)c1"
recorded_endpoint = "TGI"
units_of_measure = "µM"
recorded_result = 16.4

[[record]]
compound = "COc1ccc2c(c1)Oc1cc(O)ccc1[C@@H]2c1ccccc1C(=O)NC(C)c1ccccc1 (some centres not stated)"
recorded_endpoint = "TGI"
units_of_measure = "µM"
recorded_result = 33.4


Next compound, TGI to be filled in.
Inquiry: Quote TGI reported for O=C(O)NCC1CCCCC1 (tested in a mixture with another compound) please.
Reply text: 28
